# EXPERIMENTAL PROTOCOL: Cytotoxic assay (Cell Counting Kit-8), HEK293T
# Format: cell-based
# RUN CONDITIONS: human, HEK293T cells; 48 h culture, CCK-8; mean ± SEM, three experiments
Readings of CC50 at 48 h for the listed compounds
Hi! Could you send only the number? It should be in nM, unit omitted.

Some compounds with recorded CC50 at 48 h:
>>> reported_result("CCN(CC)c1ccc2c(c1)Oc1cc(N(CC)CC)ccc1N2C(=O)c1ccc(F)cc1")
13600
>>> reported_result("CCN(CC)c1ccc2nc3ccc(=[N+](CC)CC)cc-3oc2c1")
21
>>> reported_result("CCN(CC)CC(=O)N1c2ccc(N(CC)CC)cc2Oc2cc(N(CC)CC)ccc21.Cl")
730
>>> reported_result("CCN(CC)c1ccc2c(c1)Oc1cc(N(CC)CC)ccc1N2C(=O)c1ccccc1")
10500
>>> reported_result("CCN(CC)c1ccc2c(c1)Oc1cc(N(CC)CC)ccc1N2C(=O)C(C)(C)C")
200

What does the record list as CC50 at 48 h for CCN(CC)c1ccc2c(c1)Oc1cc(N(CC)CC)ccc1N2C(=O)C1CC1 ?
9200

What does the record list as CC50 at 48 h for CCN(CC)c1ccc2c(c1)Oc1cc(N(CC)CC)ccc1N2C(C)=O ?
320

====

# System: Plasmodium falciparum W2 (CQ- and PYR-resistant)
# EXPERIMENTAL PROTOCOL: In vitro anti-malarial efficacy (growth inhibition), XN-30 analyzer, W2 strain
# Type: cell-based
# RUN CONDITIONS: Plasmodium falciparum, W2, 48 h, read-out: IC50 W2
OBSERVED PROPERTY: IC50

Form: Entry = CCN(CC)CCCC(C)Nc1ccnc2cc(Cl)ccc12 (stereo not shown) [CQ, chloroquine, reference compound] | System = Plasmodium falciparum W2 (CQ- and PYR-resistant) | IC50 = ____
0.225 µM

====

# System: Plasmodium falciparum 3D7 (CQ- and PYR-sensitive)
# EXPERIMENTAL PROTOCOL: In vitro anti-malarial efficacy (growth inhibition), XN-30 analyzer, 3D7 strain
# Assay type: cell-based
# RUN CONDITIONS: Plasmodium falciparum, 3D7, 48 h, read-out: IC50 3D7
OBSERVED PROPERTY: IC50 (nM)
Hi! Could you send only the number? It should be in nM, unit omitted.

Form: Entry = CCN(CC)CCCC(C)Nc1ccnc2cc(Cl)ccc12 (stereo not shown) [CQ, chloroquine, reference compound] | System = Plasmodium falciparum 3D7 (CQ- and PYR-sensitive) | IC50 = ____
8.6

====

# Tested on: Plasmodium falciparum field isolate MRA-1240 (ART-resistant)
# EXPERIMENTAL PROTOCOL: In vitro anti-malarial efficacy (growth inhibition), XN-30 analyzer, MRA-1240 isolate
# Type: cell-based
# RUN CONDITIONS: 48 h, read-out: IC50 MRA-1240
OBSERVED PROPERTY: IC50 (nM)
Hi! Could you send only the number? It should be in nM, unit omitted.

What does the record list as IC50 for CCN(CC)CCCC(C)Nc1ccnc2cc(Cl)ccc12 (stereo not shown) [CQ, chloroquine, reference compound] ?
58

====

# EXPERIMENTAL PROTOCOL: Cytotoxic assay (Cell Counting Kit-8), HepG2
# Assay type: cell-based
# RUN CONDITIONS: human, HepG2 cells; 48 h culture, CCK-8; mean ± SEM, three experiments
Readings of CC50 at 48 h for the listed compounds
Hi! Could you send only the number? It should be in µM, unit omitted.

Some compounds with recorded CC50 at 48 h:
>>> reported_result("CCN(CC)c1ccc2c(c1)Oc1cc(N(CC)CC)ccc1N2C(C)=O")
4
>>> reported_result("CCN(CC)CC(=O)N1c2ccc(N(CC)CC)cc2Oc2cc(N(CC)CC)ccc21.Cl")
4.6

Turning now to a further record.
What does the record list as CC50 at 48 h for CCN(CC)c1ccc2nc3ccc(=[N+](CC)CC)cc-3oc2c1 ?
1

====

# Test system: Plasmodium falciparum field isolate MRA-1240 (ART-resistant)
# EXPERIMENTAL PROTOCOL: In vitro anti-malarial efficacy (growth inhibition), XN-30 analyzer, MRA-1240 isolate
# Format: cell-based
# RUN CONDITIONS: 48 h treatment, ring-form-synchronized, XN-30 analyzer, mean ± SEM, three experiments, read-out: IC50 MRA-1240
Assign labels as follows, please: Y for IC50 below 30 nM; N for IC50 equal to or exceeding 30 nM.

Worked set:
>>> label_value("CCN(CC)c1ccc2c(c1)Oc1cc(N(CC)CC)ccc1N2C(C)=O [ITT-001]")
"N"
>>> label_value("CCN(CC)CC(=O)N1c2ccc(N(CC)CC)cc2Oc2cc(N(CC)CC)ccc21.Cl [ITT-005]")
"N"

Identify whether the molecule CCN(CC)c1ccc2c(c1)Oc1cc(N(CC)CC)ccc1N2C(=O)C1CC1 [ITT-003] records IC50 below 30 nM.
N

Identify whether the molecule C[C@@H]1CC[C@H]2[C@@H](C)C(=O)O[C@@H]3O[C@@]4(C)CC[C@@H]1[C@]32OO4 [ART, artemisinin, reference compound] records IC50 below 30 nM.
Y

Identify whether the molecule CCN(CC)c1ccc2c(c1)Oc1cc(N(CC)CC)ccc1N2C(=O)C(C)(C)C [ITT-002] records IC50 below 30 nM.
Y

Identify whether the molecule CCN(CC)c1ccc2nc3ccc(=[N+](CC)CC)cc-3oc2c1 [basic blue 3] records IC50 below 30 nM.
Y

====

# Tested on: Plasmodium falciparum field isolate MRA-1239 (ART-sensitive)
# EXPERIMENTAL PROTOCOL: In vitro anti-malarial efficacy (growth inhibition), XN-30 analyzer, MRA-1239 isolate
# Assay type: cell-based
# RUN CONDITIONS: 48 h treatment, ring-form-synchronized, XN-30 analyzer, mean ± SEM, three experiments, read-out: IC50 MRA-1239
OBSERVED PROPERTY: IC50 (nM)
Hi! Could you send only the number? It should be in nM, unit omitted.

>>> reported_result("CCN(CC)c1ccc2c(c1)Oc1cc(N(CC)CC)ccc1N2C(=O)c1ccccc1")
26.4
>>> reported_result("CCN(CC)c1ccc2c(c1)Oc1cc(N(CC)CC)ccc1N2C(=O)C(C)(C)C")
20.7
>>> reported_result("CCN(CC)c1ccc2nc3ccc(=[N+](CC)CC)cc-3oc2c1")
5.2
>>> reported_result("CCN(CC)CC(=O)N1c2ccc(N(CC)CC)cc2Oc2cc(N(CC)CC)ccc21.Cl")
130
>>> reported_result("CCN(CC)c1ccc2c(c1)Oc1cc(N(CC)CC)ccc1N2C(=O)C1CC1")
24.9

Form: Entry = CCN(CC)c1ccc2c(c1)Oc1cc(N(CC)CC)ccc1N2C(=O)c1ccc(F)cc1 | System = Plasmodium falciparum field isolate MRA-1239 (ART-sensitive) | IC50 = ____
27.5

Form: Entry = C[C@@H]1CC[C@H]2[C@@H](C)C(=O)O[C@@H]3O[C@@]4(C)CC[C@@H]1[C@]32OO4 [ART, artemisinin, reference compound] | System = Plasmodium falciparum field isolate MRA-1239 (ART-sensitive) | IC50 = ____
5.5

Form: Entry = CCN(CC)c1ccc2c(c1)Oc1cc(N(CC)CC)ccc1N2C(C)=O | System = Plasmodium falciparum field isolate MRA-1239 (ART-sensitive) | IC50 = ____
34.6

Numbers sourced from paper PMC6631887.
